Target: T1, CD70 on cells (CHO-CD70, JVM-3, U266, Raji, THP-1, T cells) (human, UniProt P32970 1-193)
T1 construct: whole, on cells; also called cell-surface CD70
T1 sequence (looked up): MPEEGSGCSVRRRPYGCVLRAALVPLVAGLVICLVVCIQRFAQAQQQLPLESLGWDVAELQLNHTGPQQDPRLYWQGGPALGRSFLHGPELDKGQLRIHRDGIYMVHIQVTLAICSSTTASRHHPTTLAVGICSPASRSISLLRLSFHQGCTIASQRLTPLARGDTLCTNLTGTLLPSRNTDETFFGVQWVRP
Assay: on U266 cells
endpoint name: cell binding
Numbers only.

binder | cell binding
9A11 (antibody, V domains shown, alloy mouse hybridoma antibody; also called 9A11E8) VH: QVQLVESGGGVVQPGRSLRLSCAASGFTFSNYGMYWVRQAPGKGLEWVAVIWYDGSKKYYGDSVKGRFTISRDNSKNTLYLQMNSLRAEDTAVYYCARDEDTVMASFDYWGQGTLVTVSS VL: DIQLTQSPSFLSASVGDRVTITCRASQDISIYLAWYQQKPGKAPQLLIYAASTLQSGVPSRFSGSGSGTEFTLTISSLQPEDFATYSCQQLNSYPITFGGGTKVEIK | 351000
9B2 (antibody, V domains shown) VH: QLQVVESGGGLMQPGGSLRLSCAASGFTFSGSAMSWVRQAPGKGLEWVSSIYSHSMYTYYADSVKSRFTISTDNAKNTLYLQMNSLKPDDTAVYYCAASSDYEGLFVSWGQGTQVTVSS VL: QAVLTQPPSLSASPGSSVRLTCTLNSANSVGSYDISWYQQKAGSPPRYLLYYYSDSLSHQGSGVPSRFSGSTDASANAGLLLISGLQPEDEADYYCSAYNRGSHVFGGGTKLTVL | 8040
13G6 (antibody, V domains shown, alloy mouse hybridoma antibody; also called 13G6E8) VH: QVQLVESGGGVVQPGKSLRLSCAASGFTFSNYGIHWVRQAPGKGLEWVAVIWYDGSYKYYADSVKGRFTISRDNSKNTLYLQMNSLRAEDTALYYCARDTVDTYGSFDYWGQGTLVTVSS VL: DIQLTQSPSFLSASVGDRVTITGRASQGISSYLAWYQQKPGKAPNLLIYAASTLQSGVPSRFSGSGSGTEFTLTISSLQPEDFATYYCQQHNRYPITFGQGTRLEIK | 389000

Exercise: GET /values?readout=cell binding&item= 1E3 (antibody, V domains shown, alloy mouse hybridoma antibody; also called 1E3D9) VH: QLQLQESGPGLVKPSETLSLTCTVSGASITSTSYYWNWIRQPPGKGLEWIGRISYSGSTYYNPSLKSRVTISVDTSKNQFSLKLSSVTATDTAVYYCARQIRYNWNPDTFDIWGQGTMVTVSS VL: EIVMTQSPATLSVSPGERATLSCRASQSLNSNLAWYQQKPAQAPRLLIYGASTRATGIPARFSGSGSGTEFTLTISSLQSEDFAVYYCQQYDNWPLTFGGGTKVEIK
Solution: 106000

Data provenance is patent US20240252641A1.
